# protocol.summary: cytotoxicity assay (MTT)
# Assay type: cell-based
# reported.conditions: African green monkey, Vero kidney cells; Vero cells; read-out: Cytotoxicity (EC50-μM) in: VERO
property.name: EC50 at 3 days

Challenge: # query: EC50 at 3 days of entry C=CCc1ccc(OC)c(-c2ccc(OC)c(CC=C)c2)c1 [drawing 45]
Response given: > 100 µM

Challenge: Please look up its EC50 at 3 days: C=CCc1ccc2c(c1)-c1cc(CC=C)ccc1OC(C)(C)O2 [drawing 42]
Response given: > 100 µM

Challenge: Which EC50 at 3 days reading was recorded for the compound CCCc1ccc(O)c(-c2ccc(O)c(CCC)c2)c1 [drawing 44] ?
Response given: 19.8 µM

Challenge: So what does the record say about EC50 at 3 days for C=CCc1cccc(-c2cccc(CC=C)c2O)c1O [drawing 46] ?
Response given: > 100 µM

###

# protocol.summary: toxicity in mice (Table 5)
# reported.conditions: mouse, in vivo

compound: C=CCC1=C(CC=C)C(=O)c2ccccc2C1=O
Toxicity: Toxic

compound: C=CCc1cc(-c2ccc(O)c(CC=C)c2)ccc1O [drawing 56]
Toxicity: Toxic

compound: C=CCc1cc(/C(CC)=C(\CC)c2ccc(O)c(CC=C)c2)ccc1O
Toxicity: Toxic

compound: C=CCc1cc(Cc2ccc(O)c(CC=C)c2)ccc1O
Toxicity: Toxic

###

# protocol.summary: cytotoxicity assay (MTT)
# Type: cell-based
# reported.conditions: human
property.name: EC50 at 4 days (µM)
Supply the numeric figure in µM, leaving out any unit text.

Challenge: Give its EC50 at 4 days value. Item: C=CCc1ccc(O)c(-c2ccc(O)c(CC=C)c2)c1 [drawing 43]
Response given: 10.9

###

# protocol.summary: cytotoxicity assay (MTT)
# Assay type: cell-based, human
# reported.conditions: human
property.name: EC50 at 5 days
Put down the number, then write its unit next to it.

Challenge: Name the recorded EC50 at 5 days for C=CCc1ccc(O)c(-c2ccc(O)c(CC=C)c2)c1 [drawing 43] .
Response given: 16.1 µM

###

# protocol.summary: cytotoxicity assay (MTT)
# Assay type: cell-based
# reported.conditions: human; CEM cells; read-out: Cytotoxicity (EC50-μM) in: CEM
property.name: EC50 at 4 days (µM)
Kindly answer with a numeric value in µM, unit omitted.

molecule: C=CCc1cc(-c2ccc(O)c(CC=C)c2)ccc1O [drawing 47]
numeric.readout: 23

Let us move to another entry and its EC50 at 4 days.
Challenge: Which EC50 at 4 days is listed for "C=CCc1ccc(O)c(-c2cc(CC=C)ccc2O)c1" ?
Response given: 99.6

###

# System: CEM (T-lymphoblastoid cell line)
# protocol.summary: cytotoxicity assay (MTT)
# Format: cell-based
property.name: EC50
Output should be the measured figure followed by the unit it is expressed in.

Challenge: Consider the compound shown here: Cc1cn([C@H]2C[C@H](N=[N+]=[N-])[C@@H](CO)O2)c(=O)[nH]c1=O [AZT, reference compound] What is its recorded EC50?
Response given: 14.3 µM

###

# Test system: PBM cells
# protocol.summary: cytotoxicity assay (MTT)
# Format: cell-based, human
pEC50: −log10 of the molar value.
property.name: pEC50

Challenge: Please state recorded pEC50 (tested on PBM cells) of Cc1cn([C@H]2C[C@H](N=[N+]=[N-])[C@@H](CO)O2)c(=O)[nH]c1=O [AZT, reference compound]
Response given: < 4.00

Values from patent US20080300298A1
